# Subject of test: KRAS 4B G12C protein (Homo sapiens, UniProt P01116, G12C)
# Construct: This protein contained 188 amino acids in total, including an N-terminal 6-Histidine tag; made in house; host or cells: E. coli BL21
# Assay details: In vitro covalent adduct formation (CAF) assay by LC-MS
# Format: binding
# Condition context: 60 minutes; compound 10 μM, protein 5 μM, 22° C.; percentage of protein bound by the compound
Entries and their CAF (10 minutes/60 minutes) at 10 micromolar: 60 minutes values follow.
Answer with a number only, understood to be in %.

[
  {
    "Compound": "C=CC(=O)N1CCN(c2nc(OC[C@@H]3CCCN3C)nc3c2CN(Cc2cc(F)ccc2Cl)C3)C[C@@H]1CC#N",
    "Measure unit": "%",
    "Obs value": 93
  },
  {
    "Compound": "C=CC(=O)N1CCN(c2nc(OC[C@@H]3CCCN3C)nc3c2CN(Cc2c(Cl)cccc2OC(F)F)C3)[C@@H](C)C1",
    "Measure unit": "%",
    "Obs value": 6
  },
  {
    "Compound": "C=CC(=O)N1CCN(c2nc(OC[C@@H]3CCCN3C)nc3c2CN(C2CCc4ccccc42)C3)C[C@@H]1CC#N (stereo partly shown)",
    "Measure unit": "%",
    "Obs value": 95
  },
  {
    "Compound": "C=C(F)C(=O)N1CCN(c2nc(OC[C@@H]3CCCN3C)nc3c2CN(Cc2c(CC)ccc(O)c2OC)C3)C[C@@H]1CC#N",
    "Measure unit": "%",
    "Obs value": 95
  },
  {
    "Compound": "C=CC(=O)N1CCN(c2nc(OC[C@@H]3CCCO3)nc3c2CN(Cc2c(F)cccc2OC)C3)C[C@@H]1CC#N",
    "Measure unit": "%",
    "Obs value": 23
  }
]

### Prompt I am curious: what CAF (10 minutes/60 minutes) at 10 micromolar: 60 minutes value has been reported for `C=CC(=O)N1CCN(c2nc(OC[C@@H]3CCCN3C)nc3c2CN(Cc2ccccc2C(C)(C)C)C3)C[C@@H]1CC#N` ?
### Response 95

### Prompt Moving on to C=CC(=O)N1CCN(c2nc(OC[C@@H]3CCCN3CC(F)F)nc3c2CN(C2CCc4ccccc42)C3)C[C@@H]1CC#N (stereo partly shown)
### Response 86

### Prompt Moving on to `C=CC(=O)N1CCN(c2nc(OC[C@@H]3CCCN3C)nc3c2CN(Cc2ccccc2F)C3)C[C@@H]1CC#N`
### Response 96

### Prompt Moving on to C=CC(=O)N1CCN(c2nc(OC[C@@H]3CCCN3CC(F)(F)F)nc3c2CN(C2CCc4ccccc42)C3)C[C@@H]1CC#N (stereo partly shown)
### Response 71

### Prompt Moving on to C=CC(=O)N1CCN(c2nc(OC[C@@H]3CCCN3C)nc3c2CN(C2CCc4ccccc42)C3)C[C@@H]1CS(C)(=O)=O (stereo partly shown)
### Response 2

### Prompt Moving on to `C=CC(=O)N1CCN(c2nc(OC[C@@H]3CCCN3C)nc3c2CN(Cc2c(C)cccc2C)C3)C[C@@H]1CC#N`
### Response 99

### Prompt Moving on to C=CC(=O)N1CCN(c2nc(-c3nnc(C)o3)nc3c2CN(C2CCc4ccccc42)C3)C[C@@H]1CC#N (stereo partly shown)
### Response 52
